Measured Mean %, listed per entry.
tested on: cloned human or rodent CNS receptors, channels, and transporters (PDSP panel); assay: PDSP GPCR panel primary binding assays at 10 μM; conditions: Sigma 2; primary assay, mean inhibition
Give just the number in %; leave the unit off.

COMPOUND	SYSTEM TESTED	Mean % (%)
O=C(NC1CC1)C(=O)C(Cc1ccccc1)NC(=O)[C@H]1CCC(=O)N1Cc1ccccc1 (stereo partly shown) [UNC10302676A, ABT-957 (Alicapistat)]	cloned human or rodent CNS receptors, channels, and transporters (PDSP panel)	7.31
CC(=O)N1CCC(NC(=O)NC23CC4CC(CC(C4)C2)C3)CC1 [UNC10302683A, AR9281]	cloned human or rodent CNS receptors, channels, and transporters (PDSP panel)	-5.79
CCC(=O)N1CCC(NC(=O)Nc2ccc(OC(F)(F)F)cc2)CC1 [UNC10302681A, TPPU]	cloned human or rodent CNS receptors, channels, and transporters (PDSP panel)	21.21

--- query ---
Incoming: Give reported Mean % value for CNc1nc(C)nc(N[C@H]2CCC[C@@H](C(=O)NCc3ccc(C#N)cc3C(F)(F)F)C2)n1 [UNC10302679A, GSK2256294A]
Outgoing: -5.66

Data provenance is paper PMC9005681.
